Tested on: Malme-3M
Assay: NCI tumour cell line growth inhibition, 48 h
The source made the active and inactive calls. Cut-off read from the data, not from the text of the source: active = GI50 up to about 1.1 µM and inactive = higher.
Valid outcomes are listed here; reply with one: active, inactive

Below are worked cases with known answers.
CC(=O)O[C@H]1C[C@]2(O)[C@@H]3CC[C@@H]4C[C@@H](O)CC[C@]4(C)[C@H]3CC[C@]2(C)[C@H]1C1=CC(=O)OC1 :: active
O=C(O)CCSC(=O)Nc1cccc2ccccc12 :: inactive

Q: Query: recorded result category for COC(=O)/C1=C/C2CC(/C=C(/c3ccccc3)C(=O)O1)C2 in this test
A: inactive

Q: Query: recorded result category for O=C(O)CC(CC(=O)O)C(=O)O [TRICARBALLYLIC ACID] in this test
A: inactive

Q: Query: recorded result category for CC(=O)OC(C(=O)O)C(OC(C)=O)C(OC(C)=O)C(OC(C)=O)C(=O)O (stereo not drawn) in this test
A: inactive
